Recorded values, source ChEMBL document CHEMBL1201862.

# Test system: UACC-62
# Assay summary: NCI tumour cell line growth inhibition, 48 h
Calls of active or inactive are those of the source. Cut-off read from the data, not from the text of the source: active = GI50 up to about 1.1 µM and inactive = higher.
Permitted responses: active, inactive

Answered examples (3):
Input line: Tell me the assay call for N#CCCN(c1ccc(/C=N/c2nc(-c3ccccc3)cs2)cc1)S(=O)(=O)c1ccccc1 please.
Output line: inactive

Input line: Tell me the assay call for CCCCCCCCP(=O)(O)OP(=O)(O)OCC1OC(n2ccc(N)nc2=O)C(O)C1O (stereo not drawn) please.
Output line: inactive

Input line: Tell me the assay call for CC12CCC(C/C1=N\NC(N)=O)C2(C)C (stereo not drawn) please.
Output line: inactive

Next:
Input line: Tell me the assay call for O=C1C=C(N2CC2)C(=O)C=C1N1CC1 please.
Output line: active

Input line: Tell me the assay call for OCC1OC(c2scc3c(=S)[nH]cnc23)C(O)C1O (stereo not drawn) please.
Output line: inactive

Input line: Tell me the assay call for NC(C(F)(F)F)(C(F)(F)F)P(=O)(Cc1ccccc1)Cc1ccccc1 please.
Output line: inactive

Input line: Tell me the assay call for N#CC(Cc1ccccc1)N(CCC1=CCCCC1)C(c1ccccc1)c1ccccc1 (stereo not drawn) please.
Output line: inactive

Input line: Tell me the assay call for COc1nc(C#CC2(O)CCCCC2)nc(OC)n1 please.
Output line: inactive

----------
# Tested on: OVCAR-4
# Assay summary: NCI tumour cell line growth inhibition, 48 h
Calls of active or inactive are those of the source. Rule as the data show it: active = GI50 up to about 1.1 µM and inactive = higher.
Reported endpoint: GI50

Input line: Recorded GI50 of Cc1cccc(N2C(=O)C(Cl)=C(Cl)C2=O)c1 , please.
Output line: > 46.3 µM (inactive)

Input line: Recorded GI50 of O=C(O)CCC(=O)OC1N=C(c2ccccc2Cl)c2cc([N+](=O)[O-])ccc2NC1=O (stereo unspecified) , please.
Output line: 42.2 µM (inactive)

Input line: Recorded GI50 of Cn1c(=O)c(C(c2ccc([N+](=O)[O-])cc2)c2c(O)c3ccccc3n(C)c2=O)cc2ccccc21 (stereo unspecified) , please.
Output line: 41.1 µM (inactive)

Input line: Recorded GI50 of N#CCCN(c1ccc(/C=N/c2nc(-c3ccccc3)cs2)cc1)S(=O)(=O)c1ccccc1 , please.
Output line: 64.7 µM (inactive)

Input line: Recorded GI50 of COc1cc(O)c2c(c1)OCC(Cc1ccc(O)cc1)C2=O (stereo unspecified) , please.
Output line: 86.3 µM (inactive)

Input line: Recorded GI50 of CCCC(C(=O)OC)C1N/C(=N/C#N)N(Cc2ccccc2)C1=O (stereo unspecified) , please.
Output line: > 100 µM (inactive)

----------
# System: U-251
# Assay summary: NCI tumour cell line growth inhibition, 48 h
Activity calls are given as the source filed them. Rule as the data show it: active = GI50 up to about 1.1 µM and inactive = higher.
Here the recorded GI50 is given for each entry.

Input line: Recorded GI50 of CC1(C)OCN(c2ccc(Cl)cc2)Cn2c1nc1ccccc12 , please.
Output line: 22.3 µM (inactive)

Input line: Recorded GI50 of C[N+]1(C)CCCC(C#N)(c2ccccc2)CC1 (centres undefined) , please.
Output line: > 100 µM (inactive)

Input line: Recorded GI50 of CCCCNC(=S)N/C=C1\C(=O)Oc2ccccc2C1=O , please.
Output line: 54 µM (inactive)

Lab note: next compound to report on.
Input line: Recorded GI50 of O=c1[nH]c(=O)n(COCCOCc2ccccc2)cc1Nc1ccccc1 , please.
Output line: > 100 µM (inactive)

----------
# System: TK-10
# Assay summary: NCI tumour cell line growth inhibition, 48 h
Activity calls are given as the source filed them. Cut-off read from the data, not from the text of the source: active = GI50 up to about 1.1 µM and inactive = higher.
Permitted responses: active, inactive

Answered examples (10):
Input line: Tell me the assay call for Nc1c(Cl)cc(-c2nc3ccccc3s2)cc1Cl please.
Output line: active

Input line: Tell me the assay call for O=C(c1ccccc1)c1c(C(=O)c2ccccc2)c(-c2ccccc2)c2c(-c3ccccc3)sc(-c3ccccc3)c2c1-c1ccccc1 please.
Output line: inactive

Input line: Tell me the assay call for CCOC(=O)/C=C(/C(=O)OCC)n1cc(C)c(=O)n(Cc2cnnn2COCCOC(C)=O)c1=O please.
Output line: inactive

Input line: Tell me the assay call for CN(C)C1(c2cc3ccccc3s2)CCCCC1 please.
Output line: inactive

Input line: Tell me the assay call for COc1ccc(C2NC(c3ccc(OC)cc3)C(C)C(=O)C2C)cc1 (stereo unspecified) please.
Output line: inactive

Input line: Tell me the assay call for CC(C)C1CCC(=O)CC1CCCCC1CC(=O)CC1O[Si](C)(C)C(C)(C)C (stereo unspecified) please.
Output line: inactive

Input line: Tell me the assay call for Cc1cccc(C)c1NC(=O)C(=O)CC(=O)c1sc(Nc2c(C)cccc2C)nc1C please.
Output line: inactive

Input line: Tell me the assay call for COc1cc(O)c2c(c1)OCC(Cc1ccc(O)cc1)C2=O (stereo unspecified) please.
Output line: inactive

Input line: Tell me the assay call for BrC(Br)([P+](c1ccccc1)(c1ccccc1)c1ccccc1)[P+](c1ccccc1)(c1ccccc1)c1ccccc1 please.
Output line: inactive

Input line: Tell me the assay call for NC(=O)NNc1nc2ccccc2c(=O)n1NC(=O)C(=O)Nc1ccc(Cl)cc1Cl please.
Output line: inactive

Next:
Input line: Tell me the assay call for CCCCCCCCCCCCCCCCOC(=O)C(C(=O)OCCCCCCCCCCCCCCCC)[N+](C)(C)CCOC(C)=O please.
Output line: inactive

----------
# System: MDA-MB-435
# Assay summary: NCI tumour cell line growth inhibition, 48 h
The source made the active and inactive calls. Rule as the data show it: active = GI50 up to about 1.1 µM and inactive = higher.
Permitted responses: active, inactive

Answered examples (10):
Input line: Tell me the assay call for CCOC(=O)C1(C(=O)OCC)CSC1 please.
Output line: inactive

Input line: Tell me the assay call for COc1nc(C#CC2(O)CCCCC2)nc(OC)n1 please.
Output line: inactive

Input line: Tell me the assay call for S=C(Nc1cccc(Cl)c1)Nc1ccccn1 please.
Output line: inactive

Input line: Tell me the assay call for COC(=O)c1cc(CC2Cc3cc4c(cc3C2)CCC4)cc2c1CCC2 please.
Output line: inactive

Input line: Tell me the assay call for O=C1CC(=O)N(C2CCCCC2)C(=O)N1c1ccccc1S(=O)(=O)Oc1ccccc1 please.
Output line: inactive

Input line: Tell me the assay call for COc1ccc2c(c1)CCC1=CC3(CCC12C)SCCS3 (stereo not given) please.
Output line: inactive

Input line: Tell me the assay call for CSc1nc(=S)[nH]c2[nH]nc(C)c12 please.
Output line: inactive

Input line: Tell me the assay call for CC(CO)CCNc1ncnc2c1ncn2CCC(=O)OC(C)(C)C (stereo not given) please.
Output line: inactive

Input line: Tell me the assay call for COc1cc(C2c3cc4c(cc3OC(NN=C(C)C)C2C)OCO4)cc(OC)c1O (stereo not given) please.
Output line: inactive

Input line: Tell me the assay call for OC(c1ccco1)C(F)(F)c1nc2ccccc2o1 (stereo not given) please.
Output line: inactive

Next:
Input line: Tell me the assay call for CN1C(=O)c2c(c3c4ccccc4n(C)c3c3c2c2ccccc2n3C)C1=O please.
Output line: inactive

Input line: Tell me the assay call for O=C1C=CC(=O)c2c(O)ccc(O)c21 please.
Output line: inactive

Input line: Tell me the assay call for Cc1cc(S(=O)(=O)Nc2nc(N)n(-c3ccccc3)n2)c(S)cc1Cl please.
Output line: inactive

Input line: Tell me the assay call for CCOC(=O)/C(C(=O)Nc1ccc(F)cc1)=C(/N)N1CCCC1 please.
Output line: inactive

Input line: Tell me the assay call for O=C(/C=C/c1ccc(Cl)cc1)c1ccc(Cl)s1 please.
Output line: inactive

----------
Here the recorded GI50 is given for each entry.
# Test system: UACC-62
# Assay summary: NCI tumour cell line growth inhibition, 48 h
Active and inactive are the calls of the source. Rule as the data show it: active = GI50 up to about 1.1 µM and inactive = higher.

Input line: Recorded GI50 of Clc1ccc(Nc2nnc(CCCCCCCCc3nnc(Nc4ccc(Cl)cc4)o3)o2)cc1 , please.
Output line: 21.7 µM (inactive)

Next:
Input line: Recorded GI50 of Cc1ccsc1/C(S)=N\c1ccc(Cl)c(/C=N/OC(C)(C)C)c1 , please.
Output line: 32.4 µM (inactive)

Input line: Recorded GI50 of CN(c1ccccc1Cl)S(=O)(=O)c1ccccc1[N+](=O)[O-] , please.
Output line: 27.1 µM (inactive)

Input line: Recorded GI50 of C=C1C(OC2O[C@@H]3O[C@@]4(C)CC[C@H]5[C@H](C)CC[C@@H](C2=C)[C@@]35O4)O[C@@H]2O[C@@]3(C)CC[C@H]4[C@H](C)CC[C@@H]1[C@@]24O3 (stereo not given in full) , please.
Output line: > 50 µM (inactive)

Input line: Recorded GI50 of CN(Cc1cnc2nc(N)nc(N)c2n1)c1ccc(C(=O)NC(CCC(=O)NCC(P(=O)(O)O)P(=O)(O)O)C(=O)O)cc1 (stereo not given) , please.
Output line: 4.41 µM (inactive)

----------
Here the recorded GI50 is given for each entry.
# System: OVCAR-4
# Assay summary: NCI tumour cell line growth inhibition, 48 h
Active and inactive are the calls of the source. No stated cut-off is given here; in the data, active = GI50 up to about 1.1 µM and inactive = higher.

Input line: Recorded GI50 of O=c1[nH]c(=O)n(COCCOCc2ccccc2)cc1Nc1ccccc1 , please.
Output line: > 100 µM (inactive)

Next:
Input line: Recorded GI50 of C[N+]1(C)CC=C(N2CCOCC2)CC1 , please.
Output line: > 10 µM (inactive)

Input line: Recorded GI50 of COc1cc(C2c3cccc4cccc(c34)C3CCC(=O)N32)cc(OC)c1O (stereo not given) , please.
Output line: > 50 µM (inactive)

Input line: Recorded GI50 of NC(C(F)(F)F)(C(F)(F)F)P(=O)(Cc1ccccc1)Cc1ccccc1 , please.
Output line: > 100 µM (inactive)

Input line: Recorded GI50 of CNC(=O)SCC(NC(=O)CCC(N)C(=O)O)C(=O)NCC(=O)O (stereo not given) , please.
Output line: > 100 µM (inactive)

Input line: Recorded GI50 of CC1(C)CC(O)C2=C(O1)C(=O)c1ncccc1C2=O (stereo not given) , please.
Output line: 1.73 µM (inactive)

Input line: Recorded GI50 of CC(=O)NC1C(OCc2ccccc2)OC(CO)C(O)C1OC(C)C(=O)NC(C)C(=O)NC(CCC(=O)NCCCNc1c2ccccc2nc2cccc([N+](=O)[O-])c12)C(N)=O (stereo not given) , please.
Output line: 5.14 µM (inactive)

Input line: Recorded GI50 of CC(C)C1CCC(=O)CC1CCCCC1CC(=O)CC1O[Si](C)(C)C(C)(C)C (stereo not given) , please.
Output line: 12.7 µM (inactive)

Input line: Recorded GI50 of CCN(CC)CC(C(C)=O)C(c1ccccc1)c1c(O)c2ccccc2oc1=O (stereo not given) , please.
Output line: > 100 µM (inactive)

Input line: Recorded GI50 of CC(CO)CCNc1ncnc2c1ncn2CCC(=O)OC(C)(C)C (stereo not given) , please.
Output line: > 100 µM (inactive)
